Molecular target: T1, human wt-ERβ LBD (estrogen receptor beta ligand-binding domain, amino acids 261-502) (human, UniProt Q92731 261-502)
T1 construct: Cloned into pET-32a; N-terminal thioredoxine-hexahistidine tag removed with TEV protease; not shown: thioredoxin, N-terminal, cleaved; His6, N-terminal, cleaved
T1 sequence (Q92731 261-502): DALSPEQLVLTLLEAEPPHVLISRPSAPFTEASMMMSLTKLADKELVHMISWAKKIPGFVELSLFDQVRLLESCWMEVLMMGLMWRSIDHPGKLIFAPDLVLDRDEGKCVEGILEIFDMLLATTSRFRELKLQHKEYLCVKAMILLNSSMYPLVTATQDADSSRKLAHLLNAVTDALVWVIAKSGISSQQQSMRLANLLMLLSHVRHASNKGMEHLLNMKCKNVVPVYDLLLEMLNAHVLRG
Experiment: fluorescence polarisation; fluorescence anisotropy; 4 nM fluorescein-SRC-1 NR2 peptide, LBD diluted 2-fold from 10 uM (ERα) or 20 uM (ERβ); in the absence of ligand (apo-receptor); 20 mM Tris pH 8.0, 150 mM NaCl, 5 mM DTT, 10% glycerol
Conditions: both partners purified
Where no end group is shown, it is not given here. fluorescein = fluorescein label on the N-terminus of the peptide
OBSERVATION_TYPE: Kd (µM)

INSERT INTO measurements (binder, observation_type, number) VALUES
  ('fluorescein-RHKILHRLLQEGS (also called SRC-1 NR2 peptide; fluorescein-labeled SRC-1 NR2 peptide; source: bought: EZbiolab) [fluorescein-RHKILHRLLQEGS peptide corresponding to the NR box 2-binding motif of SRC-1]', 'Kd', 4.54);

Value source: paper PMC4256047
